Listed here are binders together with their documented human MASP2 IC50.
Target: recombinant human MASP2 active protease (amino acids 297-686, C-terminal His Tag) (human, UniProt O00187 297-686)
Sequence (O00187 other isoform, or with tags, fused parts or gaps limits assumed): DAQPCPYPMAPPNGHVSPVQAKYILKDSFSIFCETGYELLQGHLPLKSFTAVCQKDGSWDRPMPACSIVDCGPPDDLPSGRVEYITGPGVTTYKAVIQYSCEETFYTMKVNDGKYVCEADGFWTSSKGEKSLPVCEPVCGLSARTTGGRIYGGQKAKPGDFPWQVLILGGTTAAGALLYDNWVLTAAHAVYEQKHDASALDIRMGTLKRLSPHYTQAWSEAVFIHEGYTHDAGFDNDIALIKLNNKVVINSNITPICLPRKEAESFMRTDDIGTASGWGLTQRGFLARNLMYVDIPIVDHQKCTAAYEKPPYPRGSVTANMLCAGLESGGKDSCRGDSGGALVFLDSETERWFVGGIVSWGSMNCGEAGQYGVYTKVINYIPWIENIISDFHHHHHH
Experiment: cell-based or functional assay
Numbered stars: 1 amine (or outer) side, 2 acyl side, 3 side chain; on linkers, the order of the positions; unused ones are H or OH. Bridge positions count the residues as written; N and C are the ends. Square brackets hold non-standard residues; d marks the D form. Primed or numbered codes have the meaning given here. Ends that are not written are not given here. * marks the point of attachment. X7 = 4‑(3,5-Dimethyl-1,2-oxazol-4-yl)‑L‑phenylalanine, Cc1noc(C)c1-c1ccc(C[C@H](N[*:1])C(=O)[*:2])cc1; Tranexamic″ = tranexamic acid, NC[C@H]1CC[C@@H](C(=O)*)CC1; Oic = O=C(O)[C@@H]1C[C@@H]2CCCC[C@@H]2N1; PEG7 = NCCOCCOCCOCCOCCOCCOCCOCCC(=O)O; tBuAla = CC(C)(C)C[C@H](N)C(=O)O; Pen = CC(C)(S)[C@H](N)C(=O)O; Tle = CC(C)(C)[C@H](N)C(=O)O
OBSERVED_PROPERTY: human MASP2 IC50 (nM)

[[record]]
binder = "{Tranexamic″}-ICSRS[tBuAla]PPI[Pen]IP-{PEG7-NH2} (disulfide 2-10; SMILES CC[C@H](C)[C@@H]1NC(=O)[C@@H]2CCCN2C(=O)[C@@H]2CCCN2C(=O)[C@H](CC(C)(C)C)NC(=O)[C@H](CO)NC(=O)[C@H](CCCNC(=N)N)NC(=O)[C@H](CO)NC(=O)[C@@H](NC(=O)[C@@H](NC(=O)[C@H]2CC[C@@H](CN)CC2)[C@@H](C)CC)CSSC(C)(C)[C@@H](C(=O)N[C@H](C(=O)N2CCC[C@H]2C(=O)NCCOCCOCCOCCOCCOCCOCCOCCC(N)=O)[C@@H](C)CC)NC1=O) [Example 426: (Tranexamic)-IC+SRS-((tBu)A)-PPI-(Pen)+IP-(PEG7(25 atoms))-NH2]"
measured = 15

[[record]]
binder = "AICSRS[Tle]PPICIPD-NH2 (disulfide 3-11; N-terminus assumed; SMILES CC[C@H](C)[C@H](NC(=O)[C@H](C)N)C(=O)N[C@H]1CSSC[C@@H](C(=O)N[C@H](C(=O)N2CCC[C@H]2C(=O)N[C@@H](CC(=O)O)C(N)=O)[C@@H](C)CC)NC(=O)[C@H]([C@@H](C)CC)NC(=O)[C@@H]2CCCN2C(=O)[C@@H]2CCCN2C(=O)[C@H](C(C)(C)C)NC(=O)[C@H](CO)NC(=O)[C@H](CCCNC(=N)N)NC(=O)[C@H](CO)NC1=O) [Example 411: AIC+SRS-((tBu)G)-PPI-C+IPD-NH2]"
measured = 2500

[[record]]
binder = "[X7]ICSRSLP[Oic]I[Pen]IP-NH2 (disulfide 3-11; N-terminus assumed; SMILES CC[C@H](C)[C@H](NC(=O)[C@@H](N)Cc1ccc(-c2c(C)noc2C)cc1)C(=O)N[C@H]1CSSC(C)(C)[C@@H](C(=O)N[C@H](C(=O)N2CCC[C@H]2C(N)=O)[C@@H](C)CC)NC(=O)[C@H]([C@@H](C)CC)NC(=O)[C@@H]2C[C@@H]3CCCC[C@@H]3N2C(=O)[C@@H]2CCCN2C(=O)[C@H](CC(C)C)NC(=O)[C@H](CO)NC(=O)[C@H](CCCNC(=N)N)NC(=O)[C@H](CO)NC1=O) [Example 360: (4-(3,5-Dimethyl-1,2-oxazol-4-yl)-L-phenylalanine)-IC+SRSLP-(Oic)-I-(Pen)+IP-NH2]"
measured = 55

[[record]]
binder = "AICSRSLP[3,3‑dimethyl‑1,3‑azasilolidine‑5‑carboxylic acid]ICIPD-NH2 (disulfide 3-11) [Example 326: AIC+SRSLP-(3,3-dimethyl-1,3-azasilolidine-5-carboxylic acid)-IC+IPD-NH2]"
measured = 710

[[record]]
binder = "GICSRSLP[Oic]ICIPD-OH (disulfide 3-11; N-terminus assumed; SMILES CC[C@H](C)[C@H](NC(=O)CN)C(=O)N[C@H]1CSSC[C@@H](C(=O)N[C@H](C(=O)N2CCC[C@H]2C(=O)N[C@@H](CC(=O)O)C(=O)O)[C@@H](C)CC)NC(=O)[C@H]([C@@H](C)CC)NC(=O)[C@@H]2C[C@@H]3CCCC[C@@H]3N2C(=O)[C@@H]2CCCN2C(=O)[C@H](CC(C)C)NC(=O)[C@H](CO)NC(=O)[C@H](CCCNC(=N)N)NC(=O)[C@H](CO)NC1=O) [Example 323: GIC+SRSLP-(Oic)-IC+IPD-OH]"
measured = 560

